Give measured Efficacy[%] ERα for each item. Keep answers brief.
Target: ERα (Homo sapiens, UniProt P03372)
Construct: pSG5-ERα/β FL (Heg0/ERβ0); expressed in transfected cells; host or cells: U-20S (U-2 OS) cells, transient transfection with FuGENE 6
Sequence (P03372 whole entry): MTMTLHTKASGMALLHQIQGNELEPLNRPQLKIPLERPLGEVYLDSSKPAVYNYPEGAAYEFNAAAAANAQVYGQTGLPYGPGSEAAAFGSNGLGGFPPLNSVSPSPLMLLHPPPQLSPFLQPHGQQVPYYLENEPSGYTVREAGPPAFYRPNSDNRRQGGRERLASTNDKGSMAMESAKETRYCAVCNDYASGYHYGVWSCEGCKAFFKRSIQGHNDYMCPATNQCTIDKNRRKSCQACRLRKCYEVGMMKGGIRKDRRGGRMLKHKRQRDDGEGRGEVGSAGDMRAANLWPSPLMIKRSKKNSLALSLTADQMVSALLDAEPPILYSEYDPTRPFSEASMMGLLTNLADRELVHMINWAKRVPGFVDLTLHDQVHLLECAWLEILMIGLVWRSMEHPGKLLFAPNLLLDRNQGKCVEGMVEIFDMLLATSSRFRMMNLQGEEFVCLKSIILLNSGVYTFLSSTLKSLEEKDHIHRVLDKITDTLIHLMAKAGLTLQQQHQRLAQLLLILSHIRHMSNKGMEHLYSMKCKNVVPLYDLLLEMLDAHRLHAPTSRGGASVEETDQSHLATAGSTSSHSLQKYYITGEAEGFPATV
Experiment: Transactivation test for estrogenic agonists and antagonists, ERα, U-20S cells, luciferase reporter
Format: cell-based
Conditions: U-20S cells, luciferase activity
Answer format: numeric, % implied, no suffix.

Please indicate Efficacy[%] ERα recorded for C=C[C@@]12CCc3cc(O)ccc3C1[C@@H](CCCC[C@@H](O)C(F)(F)F)C[C@@]1(C)C2CC[C@@H]1O (mixture of isomers) [15a D1/2]
79

Please indicate Efficacy[%] ERα recorded for "C=C[C@@]12CCc3cc(O)ccc3[C@H]1[C@@H](CCCCCC#N)C[C@@]1(C)[C@H]2CC[C@@H]1O"
67

Please indicate Efficacy[%] ERα recorded for C=C[C@@]12CCc3cc(O)ccc3C1[C@@H](CCCCC[C@H](O)C(F)(F)C(F)(F)C(F)(F)F)C[C@@]1(C)C2CC[C@@H]1O (mixture of isomers) [22b D1/2]
90

Please indicate Efficacy[%] ERα recorded for C=C[C@@]12CCc3cc(O)ccc3[C@H]1[C@@H](CCCCCCN1CCCC1)C[C@@]1(C)[C@H]2CC[C@@H]1O [Compound 26b]
66

Please indicate Efficacy[%] ERα recorded for C=C[C@@]12CCc3cc(O)ccc3C1[C@@H](CCCCC(O)C(F)(F)F)C[C@@]1(C)C2CC[C@]1(C)O (single isomer, unassigned) [45a D2]
68

Please indicate Efficacy[%] ERα recorded for C=C[C@@]12CCc3cc(O)ccc3[C@H]1[C@@H](CCCCCCN(C)C)C[C@@]1(C)[C@H]2CC[C@@H]1O [Compound 25b]
88

* * *

Give measured chromatographic logD for each item. Keep answers brief.
Test: physchem
Conditions: pH 7
Could you keep your reply to the number by itself?

Please indicate chromatographic logD recorded for C=C[C@@]12CCc3cc(O)ccc3C1[C@@H](CCCCCC)C[C@@]1(C)C2CC[C@@H]1O (stereo partly drawn) [reference compound]
5.7

Please indicate chromatographic logD recorded for C=C[C@@]12CCc3cc(O)ccc3C1[C@@H](CCCCC[C@H](O)C(F)(F)F)C[C@@]1(C)C2CC[C@@H]1O (mixture of isomers) [15b D1/2]
4.1

Please indicate chromatographic logD recorded for C=C[C@@]12CCc3cc(O)ccc3[C@H]1[C@@H](CCCCCCN(C)C)C[C@@]1(C)[C@H]2CC[C@@H]1O [Compound 25b]
4.2

Please indicate chromatographic logD recorded for C=C[C@@]12CCc3cc(O)ccc3C1[C@@H](CCCCC(O)C(F)(F)F)C[C@@]1(C)C2CC[C@]1(C)O (single isomer, unassigned) [45a D2]
4.1

Please indicate chromatographic logD recorded for C=C[C@@]12CCc3cc(O)ccc3[C@H]1[C@@H](CCCCCCNC)C[C@@]1(C)[C@H]2CC[C@@H]1O [Compound 24b]
4

Please indicate chromatographic logD recorded for C=C[C@@]12CCc3cc(O)ccc3[C@H]1[C@@H](CCCCCC(O)(C(F)(F)F)C(F)(F)F)C[C@@]1(C)[C@H]2CC[C@@H]1O [Compound 18b]
4.7

* * *

Give measured Sw for each item. Keep answers brief.
Details: pH 7.4
Answer format: numeric, mg/I implied, no suffix.

Please indicate Sw recorded for C=C[C@@]12CCc3cc(O)ccc3[C@H]1[C@@H](CCCCCC(O)(C(F)(F)F)C(F)(F)F)C[C@@]1(C)[C@H]2CC[C@@H]1O [Compound 18b]
3

Please indicate Sw recorded for C=C[C@@]12CCc3cc(O)ccc3C1[C@@H](CCCCC[C@H](O)C(F)(F)F)C[C@@]1(C)C2CC[C@@H]1O (mixture of isomers) [15b D1/2]
5

* * *

Give measured Sw for each item. Keep answers brief.
Conditions: pH 7.4
Answer format: numeric, mg/I implied, no suffix.

Please indicate Sw recorded for C=C[C@@]12CCc3cc(O)ccc3[C@H]1[C@@H](CCCCCCN1CCCC1)C[C@@]1(C)[C@H]2CC[C@@H]1O [Compound 26b]
37

Please indicate Sw recorded for C=C[C@@]12CCc3cc(O)ccc3C1[C@@H](CCCCC(O)C(F)(F)F)C[C@@]1(C)C2CC[C@]1(C)O (single isomer, unassigned) [45a D2]
11

Please indicate Sw recorded for C=C[C@@]12CCc3cc(O)ccc3[C@H]1[C@@H](CCCCC(O)C(F)(F)F)C[C@@]1(C)[C@H]2CC[C@@H]1O (single isomer, unassigned) [15a D2]
11

* * *

Assay: Distribution coefficient log D (HPLC method)
Settings: pH 7
Experimental readout: chromatographic logD
Could you keep your reply to the number by itself?

Please indicate chromatographic logD recorded for C=C[C@@]12CCc3cc(O)ccc3C1[C@@H](CCCCC[C@H](O)C(F)(F)C(F)(F)C(F)(F)F)C[C@@]1(C)C2CC[C@@H]1O (mixture of isomers) [22b D1/2]
5.1

* * *

Target: ERα (Homo sapiens)
Construct: pSG5-ERα/β FL (Heg0/ERβ0); expressed in transfected cells; host or cells: U-20S (U-2 OS) cells, transient transfection with FuGENE 6
Assay: Transactivation test for estrogenic agonists and antagonists, ERα, U-20S cells, luciferase reporter
Type: cell-based
Experimental readout: EMR (EC50 )[%] ERα (%)
Answer format: numeric, % implied, no suffix.

Please indicate EMR (EC50 )[%] ERα recorded for C=C[C@@]12CCc3cc(O)ccc3C1[C@@H](CCCCC[C@H](O)C(F)(F)F)C[C@@]1(C)C2CC[C@@H]1O (mixture of isomers) [15b D1/2]
5.0

Please indicate EMR (EC50 )[%] ERα recorded for "C=C[C@@]12CCc3cc(O)ccc3[C@H]1[C@@H](CCCCCC#N)C[C@@]1(C)[C@H]2CC[C@@H]1O"
1.6

Please indicate EMR (EC50 )[%] ERα recorded for C=C[C@@]12CCc3cc(O)ccc3[C@H]1[C@@H](CCCCCCNC)C[C@@]1(C)[C@H]2CC[C@@H]1O [Compound 24b]
8

Please indicate EMR (EC50 )[%] ERα recorded for C=C[C@@]12CCc3cc(O)ccc3C1[C@@H](CCCC[C@@H](O)C(F)(F)F)C[C@@]1(C)C2CC[C@@H]1O (mixture of isomers) [15a D1/2]
0.8

Please indicate EMR (EC50 )[%] ERα recorded for C=C[C@@]12CCc3cc(O)ccc3C1[C@@H](CCCCC(O)C(F)(F)F)C[C@@]1(C)C2CC[C@]1(C)O (single isomer, unassigned) [45a D2]
1.2

Please indicate EMR (EC50 )[%] ERα recorded for C=C[C@@]12CCc3cc(O)ccc3[C@H]1[C@@H](CCCCCCN1CCCC1)C[C@@]1(C)[C@H]2CC[C@@H]1O [Compound 26b]
12

Please indicate EMR (EC50 )[%] ERα recorded for C=C[C@@]12CCc3cc(O)ccc3C1[C@@H](CCCCCC)C[C@@]1(C)C2CC[C@@H]1O (stereo partly drawn) [reference compound]
0.5

Please indicate EMR (EC50 )[%] ERα recorded for C=C[C@@]12CCc3cc(O)ccc3[C@H]1[C@@H](CCCCCC(O)(C(F)(F)F)C(F)(F)F)C[C@@]1(C)[C@H]2CC[C@@H]1O [Compound 18b]
1.6

Please indicate EMR (EC50 )[%] ERα recorded for C=C[C@@]12CCc3cc(O)ccc3[C@H]1[C@@H](CCCCC(O)C(F)(F)F)C[C@@]1(C)[C@H]2CC[C@@H]1O (single isomer, unassigned) [15a D2]
0.8

* * *

Conditions: pH 7.4
Give measured Sw for each item. Keep answers brief.

Please indicate Sw recorded for C=C[C@@]12CCc3cc(O)ccc3C1[C@@H](CCCCCC)C[C@@]1(C)C2CC[C@@H]1O (stereo partly drawn) [reference compound]
<1 mg/I

Please indicate Sw recorded for C=C[C@@]12CCc3cc(O)ccc3[C@H]1[C@@H](CCCCCCN(C)C)C[C@@]1(C)[C@H]2CC[C@@H]1O [Compound 25b]
>40 mg/I

Please indicate Sw recorded for C=C[C@@]12CCc3cc(O)ccc3[C@H]1[C@@H](CCCCCCNC)C[C@@]1(C)[C@H]2CC[C@@H]1O [Compound 24b]
>40 mg/I
